system: Key Grass and Sedge Weeds as well as Grass Crops; experiment: Post-emergent Test II herbicidal activity (Table 6); format: in vivo; conditions: post-emergence, 336 h, ZEAMX: maize, corn (Zea mays), crop, 70 g ai/ha, read-out: Visual Growth Reduction (%) 14 Days After Application, ZEAMX
assay-readout: pest or weed control at 70 g/ha

structure-as-smiles	assay-readout	result
COC(=O)c1nc(-c2ccc(C(F)(F)F)c(F)c2F)nc(N)c1OC	pest or weed control at 70 g/ha	95 to 100%
Nc1c(F)c(-c2ccc(Cl)c(F)c2)nc(C(=O)O)c1Cl	pest or weed control at 70 g/ha	85 to 94%
COC(=O)c1nc(-c2ccc(C(F)F)c(F)c2)cc(N)c1Cl	pest or weed control at 70 g/ha	0 to 29%
COC(=O)c1nc(-c2ccccc2F)c(F)c(N)c1Cl	pest or weed control at 70 g/ha	0 to 29%
COc1c(N)nc(-c2ccc(Br)cc2F)nc1C(=O)O	pest or weed control at 70 g/ha	45 to 59%
COC(=O)c1nc(-c2ccc(I)cc2)cc(N)c1Cl	pest or weed control at 70 g/ha	0 to 29%
C#Cc1ccc(-c2nc(C(=O)OC)c(Cl)c(N)c2F)c(F)c1F	pest or weed control at 70 g/ha	0 to 29%
COC(=O)c1nc(-c2ccc(OC(F)F)c(F)c2)c(F)c(N)c1Cl	pest or weed control at 70 g/ha	95 to 100%
COC(=O)c1nc(-c2ccc(Br)c(F)c2F)cc(N)c1Cl	pest or weed control at 70 g/ha	85 to 94%
COC(=O)c1nc(-c2ccc(I)c(F)c2F)nc(N)c1OC	pest or weed control at 70 g/ha	95 to 100%
